# Test system: S. pyogenes
# procedure-summary: microbe, parasite or virus in culture
# Design: species or system Streptococcus pyogenes ATCC 19615
# settings: Streptococcus pyogenes, read-out: MIC (ug/mL)
measurement-label: MIC

>>> result("CCc1nc(N)nc(N)c1C#C[C@@H](C)c1cc(OC)cc(-c2ccncc2)c1 [compound 27]")
"≤ 0.039 µg/mL"
>>> result("CCc1nc(N)nc(N)c1C#C[C@H](C)c1cc2c(c(-c3ccncc3)c1)OCO2 [compound 22]")
"≤ 0.039 µg/mL"
>>> result("CCc1nc(N)nc(N)c1C#CCc1cc(-c2cc(C)nc(C)c2)ccc1OC(F)(F)F [compound 14]")
"0.625 µg/mL"
>>> result("CCc1nc(N)nc(N)c1C#CCc1cc(-c2ccccc2C(=O)O)ccc1OC [compound 6]")
"0.625 µg/mL"
>>> result("CCc1nc(N)nc(N)c1C#C[C@H](C)c1cc(OC)cc(-c2ccncc2)c1 [compound 28]")
"≤ 0.039 µg/mL"
>>> result("CCc1nc(N)nc(N)c1C#CC(C)c1cc(O)c(O)c(-c2ccncc2)c1 (stereo not shown) [compound 32]")
"0.312 µg/mL"
>>> result("CCc1nc(N)nc(N)c1C#CC(C)c1cc(F)cc(-c2cc(C)nc(C)c2)c1 (stereo not shown) [compound 16]")
"≤ 0.039 µg/mL"
>>> result("CCc1nc(N)nc(N)c1C#CC(C)c1cc(-c2cc(C)nc(C)c2)ccc1OC(F)(F)F (stereo not shown) [compound 15]")
"0.312 µg/mL"
>>> result("CCc1nc(N)nc(N)c1C#C[C@H](C)c1cc(-c2cc(C)nc(C)c2)ccc1OC(F)(F)F [compound 12]")
"0.312 µg/mL"
>>> result("CCc1nc(N)nc(N)c1C#C[C@H](C)c1cc(-c2ccncc2)ccc1OC [compound 25]")
"≤ 0.039 µg/mL"
>>> result("CCc1nc(N)nc(N)c1C#CCc1cc(-c2ccc(C(=O)O)cc2)ccc1OC [compound 7]")
"0.078 µg/mL"
>>> result("CCc1nc(N)nc(N)c1C#C[C@H](C)c1cc(-c2ccc(C(=O)O)cc2)ccc1OC [compound 4]")
"0.078 µg/mL"
>>> result("CCc1nc(N)nc(N)c1C#C[C@@H](C)c1cc(-c2ccc(C(=O)O)cc2)ccc1OC [compound 5]")
"0.078 µg/mL"
>>> result("CCc1nc(N)nc(N)c1C#CC(C)c1cc(-c2ccncc2)cc(F)c1OC (stereo not shown) [compound 17]")
"≤ 0.039 µg/mL"
>>> result("CCc1nc(N)nc(N)c1C#C[C@@H](C)c1cc(OC)cc(-c2ccc(C(=O)O)cc2)c1 [compound 2]")
"≤ 0.039 µg/mL"
>>> result("CCc1nc(N)nc(N)c1C#CC(C)c1cc2c(c(-c3cc(C)nc(C)c3)c1)OCCO2 (stereo not shown) [compound 19]")
"≤ 0.039 µg/mL"
>>> result("CCc1nc(N)nc(N)c1C#CCc1cc(OC)cc(-c2ccc(C(=O)O)cc2)c1 [compound 1]")
"≤ 0.039 µg/mL"
>>> result("CCc1nc(N)nc(N)c1C#CC(C)c1cc(-c2cc(C)nc(C)c2)ccc1Cl (racemic) [compound 10]")
"0.312 µg/mL"
>>> result("CCc1nc(N)nc(N)c1C#C[C@@H](C)c1ccc(OC)c(-c2ccncc2)c1 [compound 23]")
"≤ 0.039 µg/mL"
>>> result("CCc1nc(N)nc(N)c1C#C[C@H](C)c1cc(OC)cc(-c2ccc(C(=O)O)cc2)c1 [compound 3]")
"≤ 0.039 µg/mL"
>>> result("CCc1nc(N)nc(N)c1C#C[C@@H](C)c1cc(-c2cc(C)nc(C)c2)ccc1OC(F)(F)F [compound 13]")
"0.156 µg/mL"
>>> result("CCc1nc(N)nc(N)c1C#CC(C)c1cc2c(c(-c3ccncc3)c1)OCCO2 (stereo not shown) [compound 20]")
"≤ 0.039 µg/mL"
>>> result("CCc1nc(N)nc(N)c1C#C[C@H](C)c1ccc(OC)c(-c2ccncc2)c1 [compound 24]")
"≤ 0.039 µg/mL"
>>> result("CCc1nc(N)nc(N)c1C#CC(C)c1cc(OC)c(OC)c(-c2ccncc2)c1 (stereo not shown) [compound 29]")
"≤ 0.039 µg/mL"
>>> result("CCc1nc(N)nc(N)c1C#C[C@H](C)c1cc(-c2cc(C)nc(C)c2)ccc1Cl [compound 9]")
"≤ 0.039 µg/mL"
>>> result("CCc1nc(N)nc(N)c1C#C[C@@H](C)c1cc(-c2ccncc2)ccc1OC [compound 26]")
"≤ 0.039 µg/mL"
>>> result("CCc1nc(N)nc(N)c1C#CC(C)c1cccc(-c2cc(C)nc(C)c2)c1 (stereo not shown) [compound 18]")
"≤ 0.039 µg/mL"
>>> result("CCc1nc(N)nc(N)c1C#C[C@@H](C)c1cc(-c2cc(C)nc(C)c2)ccc1Cl [compound 11]")
"0.625 µg/mL"
>>> result("CCc1nc(N)nc(N)c1C#C[C@@H](C)c1cc2c(c(-c3ccncc3)c1)OCO2 [compound 21]")
"≤ 0.039 µg/mL"
>>> result("CCc1nc(N)nc(N)c1C#CC(C)c1cc(-c2ccncc2)cc2c1OCO2 (stereo not shown) [compound 31]")
"≤ 0.039 µg/mL"
>>> result("CCc1nc(N)nc(N)c1C#C[C@H](C)c1cc(OC)c(OC)c(-c2ccncc2)c1 [compound 30]")
"≤ 0.039 µg/mL"
